Values from patent US20050214899

Task for the reader: assign each of the following proteins its reported Specific activity (unit/mg).
target: T1, MADY
T1 chain: MADY
Give bare numbers, in unit/mg.

Solved cases below.
Exam item: Given the protein MetAP-YMQ (wild type E. coli methionine aminopeptidase) (protein) AISIKTPEDIEKMRVAGRLAAEVLEMIEPYVKPGVSTGELDRICNDYIVNEQHAVSACLGYHGYPKSVCISINEVVCHGIPDDAKLLKDGDIVNIDVTVIKDGFHGDTSKMFIVGKPTIMGERLCRITQESLYLALRMVKPGINLREIGAAIQKFVEAEGFSVVREYCGHGIGRGFHEEPQVLHYDSRETNVVLKPGMTFTIEPMVNAGKKEIRTMKDGWTVKTKDRSLSAQYEHTIVVTDNGCEILTLRKDDTIPAIISHDE , what is its reported Specific activity (unit/mg)?
Marked response: 138

Exam item: Can you check MetAP-GTG (protein) AISIKTPEDIEKMRVAGRLAAEVLEMIEPYVKPGVSTGELDRICNDYIVNEQHAVSACLGYHGYPKSVCISINEVVCHGIPDDAKLLKDGDIVNIDVTVIKDGFHGDTSKMFIVGKPTIMGERLCRITQESLYLALRMVKPGINLREIGAAIQKFVEAEGFSVVREGCGHGIGRGFHEEPQVLHYDSRETNVVLKPGMTFTIEPTVNAGKKEIRTMKDGWTVKTKDRSLSAGYEHTIVVTDNGCEILTLRKDDTIPAIISHDE next?
Marked response: 1.68

Exam item: Same question for MetAP-M206G-Q233G (protein) AISIKTPEDIEKMRVAGRLAAEVLEMIEPYVKPGVSTGELDRICNDYIVNEQHAVSACLGYHGYPKSVCISINEVVCHGIPDDAKLLKDGDIVNIDVTVIKDGFHGDTSKMFIVGKPTIMGERLCRITQESLYLALRMVKPGINLREIGAAIQKFVEAEGFSVVREYCGHGIGRGFHEEPQVLHYDSRETNVVLKPGMTFTIEPGVNAGKKEIRTMKDGWTVKTKDRSLSAGYEHTIVVTDNGCEILTLRKDDTIPAIISHDE please.
Marked response: 0.51

Continue with the protein presented below.
Exam item: Specific activity (unit/mg) lookup needed for MetAP-M206T-Q233T (protein) AISIKTPEDIEKMRVAGRLAAEVLEMIEPYVKPGVSTGELDRICNDYIVNEQHAVSACLGYHGYPKSVCISINEVVCHGIPDDAKLLKDGDIVNIDVTVIKDGFHGDTSKMFIVGKPTIMGERLCRITQESLYLALRMVKPGINLREIGAAIQKFVEAEGFSVVREYCGHGIGRGFHEEPQVLHYDSRETNVVLKPGMTFTIEPTVNAGKKEIRTMKDGWTVKTKDRSLSATYEHTIVVTDNGCEILTLRKDDTIPAIISHDE , thanks.
Marked response: 0.38
